target: ATP-dependent translocase ABCB1 (Homo sapiens); assay: blockers of ABCB1-mediated dye efflux – cell-based, multiplex, flow cytometry, ABCG2 counter-screen, primary screen (AID 1326); settings: CCRF-Adr cells, JC-1 efflux, at 6.6 µM, active compounds read high;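 further: 0% = vehicle and 100% = reference inhibitor; higher value means more JC-1 retained so stronger ABCB1 efflux block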
Out of some 190,000 compounds screened, about 130 (0.068%) were called active. This excerpt belongs to a sample that is enriched for actives.
Listed next: entries and their corresponding inhibition.
Answer format: numeric, % implied, no suffix.

* CN1CCN(/N=C/c2ccc(C#N)cc2)CC1 | 1.07
* Cc1cccc2cc(CN(Cc3ccc4c(c3)OCO4)Cc3nnnn3C3CCCC3)c(=O)[nH]c12 | 7.85

get_value(item= CCC(c1nnnn1C1CCCC1)N(Cc1cccs1)Cc1cc2cccc(C)c2[nH]c1=O (stereo not drawn) , readout=inhibition) returns 6.67
